Molecular target: Cytochrome P450 2C9 (Homo sapiens, UniProt P11712)
Sequence (P11712 whole entry): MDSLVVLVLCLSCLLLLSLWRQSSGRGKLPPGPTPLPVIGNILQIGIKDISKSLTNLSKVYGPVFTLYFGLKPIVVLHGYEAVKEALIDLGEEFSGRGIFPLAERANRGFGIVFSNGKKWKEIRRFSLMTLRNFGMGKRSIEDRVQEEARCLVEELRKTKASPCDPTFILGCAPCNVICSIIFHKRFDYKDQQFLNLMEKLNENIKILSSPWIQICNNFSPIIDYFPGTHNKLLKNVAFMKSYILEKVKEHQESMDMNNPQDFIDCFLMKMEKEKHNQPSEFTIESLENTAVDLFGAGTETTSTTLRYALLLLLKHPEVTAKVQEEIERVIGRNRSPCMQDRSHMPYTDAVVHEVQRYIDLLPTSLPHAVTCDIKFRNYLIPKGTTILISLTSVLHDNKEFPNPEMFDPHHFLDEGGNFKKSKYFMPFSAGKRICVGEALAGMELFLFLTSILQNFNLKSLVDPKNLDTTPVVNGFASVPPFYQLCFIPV
assay endpoint: IC50

Request: Field: IC50 (Cytochrome P450 2C9 (Homo sapiens, UniProt P11712)). Entry: "COc1cc(Nc2ccc3c(n2)CN(C)C32CCN(C3COC3)CC2)c(C(N)=O)nc1-c1cccc2c1ncn2C"
Response: > 50 µM

###

Target: Serine/threonine-protein kinase PAK 1 (Homo sapiens)
Sequence (Q13153 whole entry): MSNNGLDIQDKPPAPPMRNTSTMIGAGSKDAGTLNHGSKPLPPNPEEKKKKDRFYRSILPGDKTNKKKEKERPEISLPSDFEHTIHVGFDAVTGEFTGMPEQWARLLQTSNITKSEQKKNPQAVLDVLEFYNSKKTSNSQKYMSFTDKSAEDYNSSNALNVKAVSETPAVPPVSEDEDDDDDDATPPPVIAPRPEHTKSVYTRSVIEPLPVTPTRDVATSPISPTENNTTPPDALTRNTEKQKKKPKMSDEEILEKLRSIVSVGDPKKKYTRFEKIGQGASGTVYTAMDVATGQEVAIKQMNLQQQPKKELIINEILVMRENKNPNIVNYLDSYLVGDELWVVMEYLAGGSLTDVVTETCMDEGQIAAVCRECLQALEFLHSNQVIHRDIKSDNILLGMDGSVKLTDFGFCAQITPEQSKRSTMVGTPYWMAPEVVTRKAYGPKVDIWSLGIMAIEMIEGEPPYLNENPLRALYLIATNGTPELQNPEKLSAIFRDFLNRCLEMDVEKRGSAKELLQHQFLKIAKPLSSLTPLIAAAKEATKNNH
assay endpoint: IC50

Request: Fill in: IC50 of "COc1cc(Nc2ccc3c(n2)CN(C)C32CCN(C3COC3)CC2)c(C(N)=O)nc1-c1cccc2c1ncn2C" is ___
Response: > 10 µM

###

Assay: in vivo
Conditions: cynomolgus monkey, plasma, iv, 1 mg/kg
Description: Clearance in Cynomolgus monkey plasma at 1 mg/kg, iv
assay endpoint: clearance (mL/min/kg)
Answer with a number only, understood to be in mL/min/kg.

Request: Find the recorded clearance belonging to "COc1cc(Nc2ccc3c(n2)CN(C)C32CCN(C3COC3)CC2)c(C(N)=O)nc1-c1cccc2c1ncn2C" and report it.
Response: 11.4
